Values from paper PMC9919699

Tested on: α-glucosidase
Experiment: α-glucosidase enzyme inhibition assay (starch substrate, anthrone reagent, 640 nm)
Format: biochemical
Settings: 1000 µg/mL, Table 5 (MCu series)
Description: The α-glucosidase-inhibitory activity of all derivatives of metformin was tested using the method previously described. Three test tubes were marked as test (T), blank (B), and control (C). […] The contents in the test tubes were boiled for 15 min, and the absorbance was read at a wavelength at 640 nm. The percentage inhibition was calculated using the following formula:Percentage inhibition = OD of control − OD of test tube/OD of control × 100.
Recorded % Inhibition by entry
Endpoint name: % Inhibition (%)

> print(dat)
                                   compound  endpoint.name  endpoint.unit  value.measured
1  CC(=NC(=N)NC(=N)N(C)C)c1ccccc1.CC(=NC(=N)NC(=N)N(C)C)c1ccccc1.O.O.O.O.O.O=S(=O)([O-])[O-].[Cu+2] [MCu6]   % Inhibition              %           53.44
2  CN(C)C(=N)NC(=N)N=C(c1ccccc1)c1ccccc1.CN(C)C(=N)NC(=N)N=C(c1ccccc1)c1ccccc1.O.O.O.O.O.O=S(=O)([O-])[O-].[Cu+2] [MCu7]   % Inhibition              %           48.29
3  COc1cc(C=NC(=N)NC(=N)N(C)C)ccc1O.COc1cc(C=NC(=N)NC(=N)N(C)C)ccc1O.O.O.O.O.O.O=S(=O)([O-])[O-].[Cu+2] [MCu8]   % Inhibition              %           83.14
4  C=NC(=N)NC(=N)N(C)C.C=NC(=N)NC(=N)N(C)C.O.O.O.O.O.O=S(=O)([O-])[O-].[Cu+2] [MCu4]   % Inhibition              %           51.20
